test system: OSR1; construct: gene OXSR1; settings: concentration: 1 μM, replicates: in singlicate; n = 1;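 further: KINOMEscan kinase panel screen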
OBSERVATION TYPE: %Inh (%)
Field format: number, assumed %, no unit text.

In: So what %Inh did Cn1cc(-c2cnc(N)c3c(-c4ccc5c(c4)CCN5C(=O)Cc4ccccc4)csc23)cn1 [GSK2593074] get with OSR1?
Out: 0

In: So what %Inh did COc1cc(Nc2ccnc3cc(-c4ccncc4)ccc23)cc(OC)c1OC.Cl [GW494610] get with OSR1?
Out: 100

In: So what %Inh did Cc1ccc(NC(=O)c2ccnc(N3CCCCC3)c2)cc1-c1ccc(C(=O)NCC2CC2)cc1 [GW775610] get with OSR1?
Out: 0

Next:
In: So what %Inh did c1ccc(Oc2ccc(Nc3ccnc4cc(-c5ccc(CN6CCCCC6)o5)ccc34)cc2)nc1 [GW567143] get with OSR1?
Out: 4

In: So what %Inh did Nc1ncc(-c2ccc3nccc(-c4ccncc4)c3c2)cc1S(=O)(=O)N1CCCCC1 [GSK1693850] get with OSR1?
Out: 5

###

# %Inh values compiled below
tested on: CIT; settings: concentration: 1 μM, replicates: in singlicate; n = 1
Please format your answer as a value with the unit trailing.

In: # input molecule: Cc1ccc(C)c(NC(=O)Nc2ccc(C)c(-c3ccc(C(=O)Nc4ccncc4)cc3)c2)c1 ; wanted: its %Inh
Out: 96.1%

In: # input molecule: CN(c1ccc(NC(=O)N2CCN(CCCN3CCOCC3)CC2)cc1)c1ccnc(Nc2ccc(CS(C)(=O)=O)cc2)n1.Cl ; wanted: its %Inh
Out: 16%

In: # input molecule: CC(C)c1nc(-c2ccc(F)c(NS(=O)(=O)c3c(F)cccc3F)c2)c(-c2ccnc(Nc3ccc(N4CCOCC4)nc3)n2)s1 ; wanted: its %Inh
Out: 81%

In: # input molecule: COc1cccc(-c2nc(-c3ccccc3)[nH]c2-c2ccncc2)c1 ; wanted: its %Inh
Out: 47%

In: # input molecule: O=C(Nc1n[nH]c2nc(-c3ccccc3)ccc12)C1CC1 ; wanted: its %Inh
Out: 7%

In: # input molecule: Cc1ccc(NC(=O)c2cccc(N3CCCCC3)c2)cc1-c1ccc(C(=O)NCC2CC2)cc1 ; wanted: its %Inh
Out: 86%

In: # input molecule: N#Cc1cnc2cc(-c3cnc(CNCCN4CCOCC4)s3)ccc2c1Nc1ccc(Oc2ccccc2)cc1 ; wanted: its %Inh
Out: 22%

In: # input molecule: O=C(Nc1n[nH]c2nc(-c3ccccc3O)ccc12)C1CC1 ; wanted: its %Inh
Out: 0%

###

test system: SRPK3; settings: concentration: 1 μM, replicates: in singlicate; n = 1
OBSERVATION TYPE: %Inh

Answered cases to consult:
In: # input molecule: CCn1c(-c2nonc2N)nc2c(-c3ccccc3)ncc(OCCCN)c21.O=C(O)C(F)(F)F.O=C(O)C(F)(F)F [GSK260205] ; wanted: its %Inh
Out: 0%

In: # input molecule: CC(=O)Nc1cn2nc(Oc3cccc(NC(=O)c4cccc(C(F)(F)F)c4)c3)ccc2n1 ; wanted: its %Inh
Out: 9%

In: # input molecule: Cc1ccc(NC(=O)c2ccc(Cl)c(Cl)c2)cc1-c1ccc(C(=O)Nc2ccncc2)cc1 [GSK1398460] ; wanted: its %Inh
Out: 14%

In: # input molecule: Cc1ccc(-c2ccc3occ(-c4ccc(S(C)=O)cc4)c3c2)nn1 (centres unmarked) ; wanted: its %Inh
Out: 0%

In: # input molecule: Cc1ccc(NC(=O)c2cccc(N3CCCCC3)c2)cc1-c1ccc(C(=O)NCC2CC2)cc1 [GSK1917008] ; wanted: its %Inh
Out: 23%

In: # input molecule: c1ccc(Oc2ccc(Nc3ccnc4cc(-c5ccc(CN6CCCCC6)o5)ccc34)cc2)nc1 [GW567143] ; wanted: its %Inh
Out: 20%

In: # input molecule: CN(c1ccc(F)c(NC(=O)c2cccc(OC(C)(C)C#N)c2Cl)c1)c1ccc2nc(NC(=O)C3CC3)sc2n1 ; wanted: its %Inh
Out: 0%

The record that follows has no %Inh shown yet.
In: # input molecule: Cc1cc(-c2c(-c3ccc(F)cc3)ncn2CCCN2CCOCC2)nc(N)n1 [SB-222517] ; wanted: its %Inh
Out: 19%
